# Test system: rat bladder (K^+ -induced contractions)
# protocol-description: Inhibition of K^+ -induced rat bladder contractions
# Set-up: species or system rat (male Sprague Dawley)
# particulars: 0.5 h; phasic contraction; KCl 80 mM; 30 min after drug; isolated rat bladder; read-out: IC50, inhibition of K^+ -induced rat bladder contractions, Phasic
Counter-ions that a name gives are not always drawn.
observation-type: log10 of IC50 (log10 of the value in nM)
Scale: decimal log of IC50, IC50 in nM.

Reference set, count: 3
compound	observed-measurement
COc1ccc(C(C#N)(CCCN(C)CCCNC(=O)c2cccc3c(=O)c(C)c(-c4ccccc4)oc23)C(C)C)cc1OC (stereo not drawn) [Example 11, hydrochloride hemihydrate]	2.78
COc1ccc(C(C#N)(CCCN(C)CCSCc2cccc3c(=O)c(C)c(-c4ccccc4)oc23)C(C)C)cc1OC.Cl (stereo not drawn) [Example 19, hydrochloride]	2.70
COc1ccc(CC2c3cc(OC)c(OC)cc3CCN2CCCOC(=O)c2cccc3c(=O)c(C)c(-c4ccccc4)oc23)cc1OC (stereo not drawn) [Example 7, hydrochloride]	3.15

Quote rat bladder (K^+ -induced contractions) log10 of IC50 for entry COc1ccc(C(C#N)(CCCN(C)CC(=O)NCc2cccc3c(=O)c(C)c(-c4ccccc4)oc23)C(C)C)cc1OC.Cl.O.O (stereo not drawn) [Example 16, hydrochloride dihydrate] . 2.70

Please report the measured log10 of IC50 for COc1ccc(C(C#N)(CCCN(C)CCOCc2cccc3c(=O)c(C)c(-c4ccccc4)oc23)C(C)C)cc1OC.Cl.O (stereo not drawn) [Example 18, hydrochloride hydrate] tested on rat bladder (K^+ -induced contractions). 2.48

Provide the reported log10 of IC50 (system: rat bladder (K^+ -induced contractions)) for COc1ccc(CCN(C)CCCNC(=O)c2cccc3c(=O)c(C)c(-c4ccccc4)oc23)cc1OC [Example 12] 3.34

Find log10 of IC50 for COc1ccc(C(C#N)(CCCN(C)CCS(=O)(=O)Cc2cccc3c(=O)c(C)c(-c4ccccc4)oc23)C(C)C)cc1OC (stereo not drawn) [Example 20, hydrochloride hemihydrate] on rat bladder (K^+ -induced contractions) and write it down. 2.70

----------
# protocol-description: Acute toxicity in mice (LD50)
# Format: in vivo
# particulars: mouse, in vivo, ip; mice, i.p.; death rate 7 days after administration; read-out: Mice LD50 i.p.
Where a name gives a salt, the structure may show the parent alone.
observation-type: LD50 at 168 h (mg/kg)
Please give a number only; it is taken to be in mg/kg.

molecule	LD50 at 168 h [mg/kg]
COc1ccc(C(C#N)(CCCN(C)CCNC(=O)c2cccc3c(=O)c(C)c(-c4ccccc4)oc23)C(C)C)cc1OC (stereo not shown) [Example 13, hydrochloride hemihydrate]	422

Supply LD50 at 168 h value. Item: COc1ccc(CCN(C)CCCOC(=O)c2cccc3c(=O)c(C)c(-c4ccccc4)oc23)cc1OC.Cl 773

----------
Recorded pIC50 values for a group of compounds are listed next.
# Tested on: rat bladder (K^+ -induced contractions)
# protocol-description: Inhibition of K^+ -induced rat bladder contractions
# Set-up: species or system rat (male Sprague Dawley)
# particulars: 0.5 h; phasic contraction; KCl 80 mM; 30 min after drug; isolated rat bladder; read-out: IC50, inhibition of K^+ -induced rat bladder contractions, Phasic
Where a name gives a salt, the structure may show the parent alone.
pIC50 is a log-scale quantity: -log10 of the concentration expressed in molar.

compound	assay-system	observed-measurement
Cc1c(-c2ccccc2)oc2c(C(=O)OCCN3CCCCC3)cccc2c1=O [Flavoxate, reference compound]	rat bladder (K^+ -induced contractions)	4.89
COc1ccc(C(C#N)(CCCN(C)CCCOC(=O)c2cccc3c(=O)c(C)c(-c4ccccc4)oc23)C(C)C)cc1OC.Cl (centres unmarked) [Example 4, hydrochloride]	rat bladder (K^+ -induced contractions)	6.30
COc1ccc(C(C#N)(CCCN(C)CC(=O)c2cccc3c(=O)c(C)c(-c4ccccc4)oc23)C(C)C)cc1OC.Cl.O (centres unmarked) [Example 1, hydrochloride hydrate]	rat bladder (K^+ -induced contractions)	5.00
COc1ccc(C(C#N)(CCCN(C)CCNC(=O)c2cccc3c(=O)c(C)c(-c4ccccc4)oc23)C(C)C)cc1OC (centres unmarked) [Example 13, hydrochloride hemihydrate]	rat bladder (K^+ -induced contractions)	6.52

For the compound COc1ccc(CCN(C)CCCOC(=O)c2cccc3c(=O)c(C)c(-c4ccccc4)oc23)cc1OC.Cl [Example 2, hydrochloride] , give its reported pIC50. 6.00

These measurements were taken from patent US5453518A.
